experiment_notes: Protein binding in CD-1 mouse plasma at 1 uM incubated for 6 hrs by LCMS analysis
Format: ADME, cell-free
particulars: CD-1, mouse, read-out: PPB (converted)
measured_property: fraction unbound at 6 h, 1 µM
In your answer, state the number alone without any accompanying words.

Q) Please look up its fraction unbound at 6 h, 1 µM: `CC(C)(C)c1ccc(C(=O)Nc2ccc(C(=O)NO)cc2)cc1`
A) 0.047

* * *

study_system: UniProt:Q92769
Sequence (Q92769 whole entry): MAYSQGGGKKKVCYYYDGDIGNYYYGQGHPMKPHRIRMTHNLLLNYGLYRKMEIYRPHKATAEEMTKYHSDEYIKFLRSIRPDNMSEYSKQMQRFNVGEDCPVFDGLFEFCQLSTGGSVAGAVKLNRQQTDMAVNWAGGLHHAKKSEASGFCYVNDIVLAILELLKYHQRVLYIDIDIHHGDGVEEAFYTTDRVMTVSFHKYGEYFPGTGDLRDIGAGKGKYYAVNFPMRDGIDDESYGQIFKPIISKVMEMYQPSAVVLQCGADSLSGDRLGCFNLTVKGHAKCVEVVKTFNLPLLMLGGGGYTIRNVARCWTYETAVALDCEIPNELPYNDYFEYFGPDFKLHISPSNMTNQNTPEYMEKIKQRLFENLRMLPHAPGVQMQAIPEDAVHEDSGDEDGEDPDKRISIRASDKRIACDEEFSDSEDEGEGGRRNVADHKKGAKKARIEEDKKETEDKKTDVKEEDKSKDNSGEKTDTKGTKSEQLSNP
experiment_notes: Inhibition of recombinant full length human HDAC2 expressed in baculovirus infected Sf9 cells using FAM-RHKK-Ac as substrate incubated for 17 hrs by electrophoretic mobility shift assay
pIC50: −log10 of the molar value.
measured_property: pIC50

Q) Record `CC(C)(C)c1ccc(C(=O)Nc2ccc(C(=O)NO)cc2)cc1` : what is its pIC50 with UniProt:Q92769?
A) < 6.00

Origin of measurements: ChEMBL document CHEMBL4373747
